Details: [M+Na]+; instrument: DT; stepped-field
parameter: collision cross section (N2) (Å²)

CCCCCCCCCCCCCCCCCCC(=O)OCC(O)COP(=O)([O-])OCC[N+](C)(C)C (centres undefined)	244.1
CC1(O)CCOC(=O)C1 (centres undefined)	143.67
Nc1ncnc2c1ncn2[C@@H]1O[C@H](CO)[C@@H](O)[C@H]1O	170.07
OC1C(O)C(O)C(O)C(O)C1O (centres undefined)	151.95
CN1c2c([nH]c(N)nc2=O)NCC1CNc1ccc(C(=O)N[C@H](CCC(=O)O)C(=O)O)cc1 (some centres undefined) [5-Methyltetrahydrofolate]	200.04
CCCCCCCCCCCCCCCCCCCCCCCC(=O)O	216.86
O=C1C[C@@H](c2ccc(O)c(O)c2)Oc2cc(O)cc(O)c21	182.17
CCCCCCCC/C=C\CCCCCCCC(=O)OC(CC(=O)[O-])C[N+](C)(C)C (centres undefined)	228.6
CC/C=C\C[C@H](O)/C=C/[C@H]1OC(O)C[C@H](O)[C@@H]1C/C=C\CCCC(=O)O (some centres undefined)	197.33

###

Conditions: [M+H]+; instrument: DT; single field, calibrated with Agilent tune mix (Agilent)
parameter: collision cross section (N2) (Å²)

C[N+](C)(C)CC(=O)[O-]	121.4

I: Cn1cc(C(N)=O)ccc1=O [N1-Methyl-2-pyridone-5-carboxamide]
II: CC1=C(C/C=C(\C)CCC[C@H](C)CCC[C@H](C)CCCC(C)C)C(=O)c2ccccc2C1=O [Phylloquinone]
Response body: label of entry with the larger collision cross section (N2); valid values I , II . API: response body contains the label of the selected item.
II
(II: 217.3 Å², I: 132.1 Å²)

I: COc1ccc(CC(=O)O)cc1
II: CCCCCCCCCCCC(=O)SCCNC(=O)CCNC(=O)[C@H](O)C(C)(C)COP(=O)(O)OP(=O)(O)OC[C@H]1O[C@@H](n2cnc3c(N)ncnc32)[C@H](O)[C@@H]1OP(=O)(O)O
// compare measured collision cross section (N2) between I and II ; output the lower one API: response body contains the label of the selected item.
I

###

Settings: [M+K]+; instrument: DT; stepped-field
parameter: collision cross section (N2) (Å²)

CCCCCCC=CCC=CCC(=O)OC[C@H](COP(=O)(O)OCCN)OC(=O)CC=CCC=CCCCCCC [PE(26:4)]	245.4
CCCCC/C=C\C/C=C\CCCCCCCCCC(=O)O[C@H](COC(=O)CCCCCCC/C=C\CCCCCCCCC)COP(=O)(O)OCCN [PE(39:3)]	293.4
CCCCCCC/C=C\CCCCCCCC(=O)O[C@H](COC(=O)CCCCCCCCC/C=C\CCCCCCCC)COP(=O)(O)OC[C@H](N)C(=O)O [PS(37:2)]	293
C=CCCCCCCCCCCCCC(=O)O[C@H](COC(=O)CCCCCCCCCCCCCCC)COP(=O)([O-])OCC[N+](C)(C)C [PC(31:1)]	286.5
CC/C=C\C/C=C\C/C=C\C/C=C\CCCCC(=O)OC[C@H](COP(=O)([O-])OCC[N+](C)(C)C)OC(=O)CCCCCCCCCCCCCCCC [PC(35:4)]	294.5
CCCCC/C=C\C/C=C\C/C=C\CCCCC(=O)O[C@H](COC(=O)CCCCCCCCCCCCC)COP(=O)([O-])OCC[N+](C)(C)C [PC(32:3)]	288.9

###

Conditions: [M+HCOO]-; instrument: DT; stepped-field
parameter: collision cross section (N2) (Å²)

CC/C=C\C/C=C\C/C=C\C/C=C\C/C=C\CCCC(=O)O[C@H](COC(=O)CCCCCCC/C=C\CCCCCCCC)COP(=O)([O-])OCC[N+](C)(C)C	295.99
CCCCCCCCCCCCC=CC[C@@H](O)[C@H](COP(=O)([O-])OCC[N+](C)(C)C)NC(=O)CCCCCCCCCCCCCCCCCCCCCCC	306.96
CCCCCCCCCCCCC=CC[C@@H](O)[C@H](CO[C@@H]1O[C@H](CO)[C@@H](O)C(O)C1O)NC(=O)CCCCCCCCCCCCCCCCCCCCC (stereo partly drawn)	298.16
CCCCCCCCCCCCC=CC[C@@H](O)[C@H](COP(=O)([O-])OCC[N+](C)(C)C)NC(=O)CC=CCCCCCCCCCCCCCCCCCCCC	305.63
CCCCCCCCCCCCC=CC[C@@H](O)[C@H](CO[C@@H]1O[C@H](CO)[C@@H](O)C(O)C1O)NC(=O)CCCCCCCCCCCCCCCCC (stereo partly drawn)	287.29
CCCCCCCCCCCCC=CC[C@@H](O)[C@H](COP(=O)([O-])OCC[N+](C)(C)C)NC(=O)CCCCCCCCCCCCCCCCCCC	296.3
CCCCCCCCCCCCC=CC[C@@H](O)[C@H](CO[C@@H]1O[C@H](CO)[C@@H](O)C(O)C1O)NC(=O)CCCCCCCCCCCCCCCCCCCCCCC (stereo partly drawn)	302.85
CCCCCC/C=C/CCCCCCCCCC(=O)O[C@H](COC(=O)CCCCCCCCCCCCCCC)COP(=O)([O-])OCC[N+](C)(C)C	290.79

###

Details: [M-H]-; instrument: DT; single field, calibrated with Agilent tune mix (Agilent)
parameter: collision cross section (N2) (Å²)

CC[C@H](C)[C@@H]1NC(=O)[C@H](Cc2ccc(O)cc2)NC(=O)[C@@H](N)CSSC[C@@H](C(=O)N2CCC[C@H]2C(=O)N[C@@H](CC(C)C)C(=O)NCC(N)=O)NC(=O)[C@H](CC(N)=O)NC(=O)[C@H](CCC(N)=O)NC1=O	294.98

1: Cn1c(=O)c2[nH]cnc2n(C)c1=O
2: NC(Cc1cc(I)c(Oc2ccc(O)cc2)c(I)c1)C(=O)O (stereo not drawn)
// compare measured collision cross section (N2) between 1 and 2 ; output the lower one API: response body contains the label of the selected item.
1
(1: 130.14 Å², 2: 186.44 Å²)

I: CC(C)CCCC(C)CCCC(C)CCCC(C)CC(=O)O (stereo not drawn)
II: O=C(O)[C@H](O)[C@@H](O)CO [L-Threonate]
Response body: label of entry with the larger collision cross section (N2); valid values I , II . API: response body contains the label of the selected item.
I
(I: 183.17 Å², II: 116.84 Å²)

P: Nc1ccn([C@@H]2O[C@H](COP(=O)(O)OP(=O)(O)OP(=O)(O)O)[C@@H](O)[C@H]2O)c(=O)n1 [Cytidine triphosphate]
Q: CC(C)(COP(=O)(O)OP(=O)(O)OC[C@H]1O[C@@H](n2cnc3c(N)ncnc32)[C@H](O)[C@@H]1OP(=O)(O)O)[C@@H](O)C(=O)NCCC(=O)NCCSC(=O)C[C@@](C)(O)CC(=O)O
// compare measured collision cross section (N2) between P and Q ; output the lower one API: response body contains the label of the selected item.
P
(P: 179.08 Å², Q: 259.35 Å²)

1: C=Cc1c(C)c2cc3[nH]c(cc4nc(cc5nc(cc1[nH]2)C(C)=C5CCC(=O)O)C(CCC(=O)O)=C4C)c(C)c3C=C
2: O=P(O)(O)OC[C@H]1O[C@](O)(CO)[C@@H](O)[C@@H]1O [Beta-D-Fructose 6-phosphate]
// compare measured collision cross section (N2) between 1 and 2 ; output the lower one API: response body contains the label of the selected item.
2

###

Settings: [M+HCOO]-; instrument: DT; single field, calibrated with Agilent tune mix (Agilent)
parameter: collision cross section (N2) (Å²)

CCCCCCCCCCCCC=CC[C@@H](O)[C@H](CO[C@@H]1O[C@H](CO)[C@@H](O)C(O)C1O)NC(=O)CCCCCCCCCCCCCCCCC (stereo partly specified) [GlcCer(36:1)]	283.3
CCCCCCCCCCCCC=CC[C@@H](O)[C@H](CO[C@@H]1O[C@H](CO)[C@@H](O)C(O)C1O)NC(=O)CCCCCCCCCCCCCCCCCCCCCCC (stereo partly specified) [GlcCer(42:1)]	299.4
CCCCCCCCCCCCC=CC[C@@H](O)[C@H](COP(=O)([O-])OCC[N+](C)(C)C)NC(=O)CCCCCCCCCCCCCCCCCCC [SM(38:1)]	292.1
CCCCCCCCCCCCC=CC[C@@H](O)[C@H](CO)NC(=O)CCCCCCCCCCCCCCCCCCC [Cer(38:1)]	263.4
CCCCCCCCCCCCCC(=O)OC[C@@H](O)COP(=O)([O-])OCC[N+](C)(C)C [LPC(14:0)]	227
CCCCCC/C=C/CCCCCCCC(=O)OC[C@@H](O)COP(=O)([O-])OCC[N+](C)(C)C [LPC(16:1)]	231.3

###

Conditions: [M+K]+; instrument: DT; single field, calibrated with ESI Low Concentration Tuning Mix (Agilent)
parameter: collision cross section (N2) (Å²)

Nc1nc(=O)c2ncn([C@@H]3O[C@H](CO)[C@@H](O)[C@H]3O)c2[nH]1 [GUANOSINE]	174.3
O=C(O)CCCC[C@@H]1SC[C@@H]2NC(=O)N[C@@H]21 [BIOTIN]	160.1
C[N+](C)(C)CC(=O)[O-] [BETAINE]	130.5
CC(=O)OCC(=O)[C@@]1(O)CC[C@H]2[C@@H]3CCC4=CC(=O)CC[C@]4(C)[C@H]3[C@@H](O)C[C@@]21C [CORTISOL 21-ACETATE]	207.2
N[C@@H](CCC(=O)O)C(=O)O [GLUTAMATE]	149.8
OC[C@H]1O[C@H](OC[C@H]2OC(O)[C@H](O)[C@@H](O)[C@@H]2O)[C@H](O)[C@@H](O)[C@H]1O (some centres undefined) [MELIBIOSE]	180
OC[C@H]1O[C@H](O[C@H]2[C@H](O)[C@@H](O)[C@H](O)O[C@@H]2CO)[C@H](O)[C@@H](O)[C@@H]1O [MALTOSE]	181.7
O=c1nc[nH]c2c1ncn2[C@@H]1O[C@H](CO)[C@@H](O)[C@H]1O [INOSINE]	170.2
COc1ccc2[nH]cc(CCNC(C)=O)c2c1 [MELATONIN]	158.3
